Each recorded value in this set is attributed to paper PMC9738927.

Experiment: Pharmacokinetics in whole blood after a single oral dose (HPLC-MS/MS)
Format: in vivo, CD1 IGS mice
Details: CD1 IGS, mouse, whole blood; blood, single oral 10 mg/kg; read-out: MRT0-inf_obs (converted)
experimental_readout: MRT inf (min)

C=C(C)[C@@H]1CC=C(C)[C@@H](Sc2nc[nH]n2)[C@@H]1O = 29.7

---

Assay: Pharmacokinetics in whole blood after a single oral dose (HPLC-MS/MS)
Assay type: in vivo, CD1 IGS mice
Conditions: CD1 IGS, mouse, whole blood; blood, single oral 10 mg/kg; read-out: AUC0-inf_obs
experimental_readout: AUC(0-inf) (ng·h/mL)

C=C(C)[C@@H]1CC=C(C)[C@@H](Sc2nc[nH]n2)[C@@H]1O [PA96] = 290

---

Experiment: Pharmacokinetics in brain tissue after a single oral dose (HPLC-MS/MS)
Assay type: in vivo, CD1 IGS mice
Details: CD1 IGS, mouse; brain, single oral 10 mg/kg
experimental_readout: Cmax (ng/g)

C=C(C)[C@@H]1CC=C(C)[C@@H](Sc2nc[nH]n2)[C@@H]1O = 125

---

Test: Pharmacokinetics in whole blood after a single oral dose (HPLC-MS/MS)
Type: in vivo, CD1 IGS mice
Settings: CD1 IGS, mouse, whole blood; blood, single oral 10 mg/kg
experimental_readout: AUC0-t (ng·h/mL)

C=C(C)[C@@H]1CC=C(C)[C@@H](Sc2nc[nH]n2)[C@@H]1O [PA96] = 278

---

Assay: Maximum tolerated dose and LD50 (acute oral toxicity)
Format: in vivo
Conditions: female, CD-1, mouse, in vivo, po
experimental_readout: LD50 at 14 days (mg/kg)

C=C(C)[C@@H]1CC=C(C)[C@@H](Sc2nc[nH]n2)[C@@H]1O = 234
